Values were extracted from paper PMC4547606.

- test_system: human CB2 receptor (Homo sapiens, UniProt P34972)
- Sequence (P34972 whole entry): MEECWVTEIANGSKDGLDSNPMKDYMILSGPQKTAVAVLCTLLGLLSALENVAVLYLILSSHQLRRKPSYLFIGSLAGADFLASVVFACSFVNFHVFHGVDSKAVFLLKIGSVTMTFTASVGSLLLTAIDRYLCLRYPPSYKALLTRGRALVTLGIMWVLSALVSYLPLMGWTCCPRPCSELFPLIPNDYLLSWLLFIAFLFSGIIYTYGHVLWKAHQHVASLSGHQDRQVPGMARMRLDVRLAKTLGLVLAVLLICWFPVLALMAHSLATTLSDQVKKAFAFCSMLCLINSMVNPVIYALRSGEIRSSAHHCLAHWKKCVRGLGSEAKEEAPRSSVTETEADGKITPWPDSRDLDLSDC
- protocol_text: CB2 calcium mobilization assay, antagonist screen at 10 μM
- Type: cell-based
- measurement_context: read-out: CB2 % Inhibition of CP55,940, compound at 10 μM; percent inhibition of CP55,940 EC80 (100 nM); mean ± SEM, at least two independent experiments in duplicate
Binning of inhibition at 10 µM into classes: one (below -30%), two (-30% to below -20%), three (-20% or more)

Take a look at these entries with their results.
INSERT INTO measurements (mol_smiles, test_system, assigned_label) VALUES
  ('CCc1c(C(=O)Nc2cccc(-c3cccc(N(C)C)n3)c2)[nH]c2ccc(Cl)cc12', 'human CB2 receptor (Homo sapiens, UniProt P34972)', 'three'),
  ('CCc1c(C(=O)NCCc2ccc(C(C)(C)C)cc2)[nH]c2ccc(Cl)cc12', 'human CB2 receptor (Homo sapiens, UniProt P34972)', 'three'),
  ('CCc1c(C(=O)NCCc2ccc(N(CC)CC)cc2)[nH]c2ccc(F)cc12', 'human CB2 receptor (Homo sapiens, UniProt P34972)', 'two'),
  ('CCc1c(C(=O)NCCc2ccc(OC)cc2)[nH]c2ccc(Cl)cc12', 'human CB2 receptor (Homo sapiens, UniProt P34972)', 'three'),
  ('CCc1c(C(=O)N2CCN(c3ccccc3)CC2)[nH]c2ccc(Cl)cc12', 'human CB2 receptor (Homo sapiens, UniProt P34972)', 'two'),
  ('CCc1c(C(=O)NCCc2ccc(N3CCCCC3)cc2)[nH]c2ccc(F)cc12', 'human CB2 receptor (Homo sapiens, UniProt P34972)', 'one');

**Query** Which category fits this record: `CCc1c(C(=O)NCCc2ccc(N3CCCCC3)cc2)[nH]c2ccc(Cl)cc12`
**Result** three

**Query** Proceed to `CCN(CC)c1ccc(CCNC(=O)c2[nH]c3ccc(F)cc3c2C)cc1`
**Result** two

**Query** Proceed to `CCc1c(C(=O)N2CCN(c3ccc(Cl)cc3)CC2)[nH]c2ccc(Cl)cc12`
**Result** one

**Query** Proceed to `CCCN(CCC)c1ccc(CCNC(=O)c2[nH]c3ccc(Cl)cc3c2CC)cc1`
**Result** one

**Query** Proceed to `CCN(CC)c1ccc(CCNC(=O)c2cc3cc(F)ccc3[nH]2)cc1`
**Result** two

**Query** Proceed to `CCc1c(C(=O)NCCc2ccc(N(C)C)cc2)[nH]c2ccc(Cl)cc12`
**Result** three

**Query** Proceed to `CCCCCCNc1ccc(CCNC(=O)c2[nH]c3ccc(Cl)cc3c2CC)cc1`
**Result** one
